Source of measurements: patent US10172358B2

Measured melting point, listed per entry for reference.

Incoming: Quickly give me recorded melting point for COc1ccnc(C(=S)N[C@@H](C)C(=O)O[C@H](C(C)C)[C@H](C)Oc2ccc(F)cc2)c1O
Outgoing: 141 to 148 °C

Incoming: Quickly give me recorded melting point for COc1ccnc(C(=S)N[C@@H](C)C(=O)O[C@@H](C)[C@@H](c2ccc(F)cc2)c2ccc(F)cc2C)c1O
Outgoing: 57 to 68 °C

Incoming: Quickly give me recorded melting point for COc1ccnc(C(=S)N[C@@H](C)C(=O)O[C@@H](C)C(c2ccc(F)cc2F)c2ccc(F)cc2F)c1O
Outgoing: 50 to 61 °C

---

Measured pest or weed control at 100 ppm, listed per entry for reference.
# System: Puccinia triticina
# Assay name: Fungicidal activity: wheat brown rust (PUCCRT), disease control on wheat seedlings
# Assay type: in vivo, Puccinia triticina on wheat plants (variety Yuma)
# Condition notes: 72 h, high volume application, 100 ppm, 3 day curative, read-out: PUCCRT 3DC disease control, HV activity at 100 ppm
# Protocol: Technical grades of materials were dissolved in acetone, which were then mixed with nine volumes of water (H2O) containing 110 ppm Triton X-100. The fungicide solutions were applied onto wheat seedlings using an automated booth sprayer to run-off. All sprayed plants were allowed to air dry prior to further handling. All fungicides were evaluated using the aforementioned method for their activity vs. all target diseases, unless stated otherwise. […]

COc1cc(F)ccc1[C@H](c1ccc(C)cc1)[C@H](C)OC(=O)[C@H](C)NC(=S)c1nccc(OC)c1O [Compound 18] | > 80%
COc1ccnc(C(=S)N[C@@H](C)C(=O)O[C@@H](C)C(c2ccc(F)cc2)c2ccc(F)cc2)c1O [Compound 39] | ≤ 80%
COc1ccnc(C(=S)N[C@@H](C)C(=O)O[C@@H](C)[C@H](Oc2ccccc2Cl)c2ccccc2)c1O [Compound 22] | ≤ 80%
COc1ccc(O[C@@H](C)[C@H](OC(=O)[C@H](C)NC(=S)c2nccc(OC)c2O)C(C)C)cc1 [Compound 11] | > 80%

Incoming: Quickly give me recorded pest or weed control at 100 ppm for COc1ccnc(C(=S)N[C@@H](C)C(=O)O[C@@H](C)C(c2ccc(C)cc2)c2ccc(C)cc2)c1O [Compound 20]
Outgoing: ≤ 80%

Incoming: Quickly give me recorded pest or weed control at 100 ppm for COc1ccnc(C(=S)N[C@@H](C)C(=O)O[C@@H](C)C(c2ccc(F)cc2F)c2ccc(F)cc2F)c1O [Compound 32]
Outgoing: ≤ 80%

Incoming: Quickly give me recorded pest or weed control at 100 ppm for COc1cc(Cl)ccc1C(c1ccc(Cl)cc1OC)[C@H](C)OC(=O)[C@H](C)NC(=S)c1nccc(OC)c1O [Compound 14]
Outgoing: ≤ 80%
